B1: SNAP91 (parent)
chain: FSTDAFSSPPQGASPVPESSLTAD

# Variants of: B1
# ASSAY PROTOCOL: protein stability index of a GFP-peptide fusion (GPS, HEK-293T) (PSI 1-6); higher = more stable;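 note: lentivirally expressed fusions sorted by FACS into six bins by GFP to DsRed ratio, PSI derived from sequencing read proportions per bin multiplied by bin number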
# TEST CONDITIONS: c terminus: a fixed tail appended
Reported protein stability index values are given for each entry in this list.
Please give only the number in your answer, with no unit.

Worked examples follow.
{"MUTATION ID": "P9K", "protein stability index": 2.92}
{"MUTATION ID": "T22C", "protein stability index": 3.3}
{"MUTATION ID": "V16G", "protein stability index": 3.66}
{"MUTATION ID": "V16W", "protein stability index": 2.21}
{"MUTATION ID": "F6I", "protein stability index": 5.43}
{"MUTATION ID": "T22P", "protein stability index": 2.83}
{"MUTATION ID": "L21V", "protein stability index": 3.39}
{"MUTATION ID": "S19K", "protein stability index": 2.23}
{"MUTATION ID": "E18A", "protein stability index": 3.22}
{"MUTATION ID": "S19W", "protein stability index": 2.76}

Incoming: Indicate the recorded protein stability index value for this variant: A23H
Outgoing: 2.85

Incoming: Indicate the recorded protein stability index value for this variant: S19V
Outgoing: 2.85

Incoming: Indicate the recorded protein stability index value for this variant: L21K
Outgoing: 3.12
